kon values for the binders below.
# Tested Target: T1, Cynomolgus monkey CD98 ECD with C-terminal His-tag (SEQ ID NO: 127) (cynomolgus monkey, UniProt P08195 105-529 (human entry))
# T1 construct: The entry includes the linker and the polyhistidine tag; also called cyCD98 ECD
# T1 chain: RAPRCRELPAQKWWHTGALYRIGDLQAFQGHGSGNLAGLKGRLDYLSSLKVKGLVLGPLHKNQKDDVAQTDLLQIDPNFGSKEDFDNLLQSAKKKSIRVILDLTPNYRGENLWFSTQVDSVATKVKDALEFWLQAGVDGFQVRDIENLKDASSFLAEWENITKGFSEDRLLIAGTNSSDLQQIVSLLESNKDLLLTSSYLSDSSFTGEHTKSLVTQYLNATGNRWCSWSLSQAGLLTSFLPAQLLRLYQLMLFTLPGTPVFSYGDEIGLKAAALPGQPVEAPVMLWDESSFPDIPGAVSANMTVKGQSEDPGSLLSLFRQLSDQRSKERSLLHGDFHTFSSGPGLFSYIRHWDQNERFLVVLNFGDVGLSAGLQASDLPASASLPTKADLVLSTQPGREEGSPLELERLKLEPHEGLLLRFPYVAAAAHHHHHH
# Experiment Notes: SPR (Biacore), recombinant CD98 ECD
Parameter Measured: kon (M⁻¹ s⁻¹)

- Binder: "huAb109 (antibody, V domains shown, Framework re-engineered humanized clone (parent huAb15v6), expressed as full-length IgG) VH: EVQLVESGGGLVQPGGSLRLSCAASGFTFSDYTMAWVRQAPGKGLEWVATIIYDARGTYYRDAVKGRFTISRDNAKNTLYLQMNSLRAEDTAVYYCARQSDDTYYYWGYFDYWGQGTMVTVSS VL: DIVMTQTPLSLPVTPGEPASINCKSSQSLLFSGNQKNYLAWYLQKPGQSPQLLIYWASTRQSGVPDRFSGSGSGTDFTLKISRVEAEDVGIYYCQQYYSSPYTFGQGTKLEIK"
  Scale Unit: "M⁻¹ s⁻¹"
  Readout Value: 26000
- Binder: "huAb107 (antibody, V domains shown, Framework re-engineered humanized clone (parent huAb15v2), expressed as full-length IgG) VH: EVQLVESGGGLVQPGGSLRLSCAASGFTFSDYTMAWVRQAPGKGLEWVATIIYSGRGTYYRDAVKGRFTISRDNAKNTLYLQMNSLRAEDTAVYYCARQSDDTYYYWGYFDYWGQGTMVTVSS VL: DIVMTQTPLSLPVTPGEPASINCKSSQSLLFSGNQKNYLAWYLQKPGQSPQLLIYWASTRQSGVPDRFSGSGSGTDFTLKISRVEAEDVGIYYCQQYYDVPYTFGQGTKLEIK"
  Scale Unit: "M⁻¹ s⁻¹"
  Readout Value: 33000
- Binder: "huAb105 (antibody, V domains shown, Framework re-engineered humanized clone (parent huAb15v1), expressed as full-length IgG) VH: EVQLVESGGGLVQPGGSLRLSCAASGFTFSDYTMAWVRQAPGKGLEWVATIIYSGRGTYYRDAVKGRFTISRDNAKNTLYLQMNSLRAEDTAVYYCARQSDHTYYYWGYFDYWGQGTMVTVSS VL: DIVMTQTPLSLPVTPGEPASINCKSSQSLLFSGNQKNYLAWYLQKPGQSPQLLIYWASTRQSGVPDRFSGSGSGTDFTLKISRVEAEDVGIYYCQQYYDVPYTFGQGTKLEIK"
  Scale Unit: "M⁻¹ s⁻¹"
  Readout Value: 38000
